system: Salmonella typhimurium; experiment: MIC, agar dilution, Salmonella typhimurium; assay type: cell-based; settings: Salmonella enterica, TYPHIMURIUM / UC6164; strain UC6164; read-out: MIC
attribute_measured: MIC (µg/mL)

Task item: Give the measured MIC of `CO/N=C(\C(=O)N[C@@H]1C(=O)N2C(C(=O)O)=C(CSSCC3=C(C(=O)O)N4C(=O)[C@@H](NC(=O)/C(=N\OC)c5csc(N)n5)[C@H]4SC3)CS[C@H]12)c1csc(N)n1` .
Reply: 2

A: CCCSSCC1=C(C(=O)O)N2C(=O)[C@@H](NC(=O)/C(=N\OC)c3csc(N)n3)[C@H]2SC1
B: CO/N=C(\C(=O)N[C@@H]1C(=O)N2C(C(=O)O)=C(CS)CS[C@H]12)c1csc(N)n1
C: CO/N=C(\C(=O)N[C@@H]1C(=O)N2C(C(=O)O)=C(CSSc3ccc(Cl)cc3)CS[C@H]12)c1csc(N)n1
D: CO/N=C(\C(=O)N[C@@H]1C(=O)N2C(C(=O)O)=C(CSSCc3ccco3)CS[C@H]12)c1csc(N)n1
E: CCC(C)SSCC1=C(C(=O)O)N2C(=O)[C@@H](NC(=O)/C(=N\OC)c3csc(N)n3)[C@H]2SC1 (stereo partly drawn)
Task item: Please list the entries, largest MIC first. Please, when replying, give the labels in the order that was requested.
Reply: A, E, D, C, B
